- testName: PSAC antagonists in infected red cells, primary screen, cell-based, P. falciparum Indochina, OD700, 1 h (AID 1154)
- measurementParameters: P. falciparum Indochina infected RBC osmotic lysis, higher = more signal, called active from +8 up or from −8 down
Active and inactive are the calls of the source.
measurementType: z-score

>  <smilesCode>
C=CCOC(=O)[C@H]1[C@@H]2C(=O)O[C@@H](c3ccccc3)[C@@H](c3ccccc3)N2[C@@H](c2ccc(OCCOC(=O)[C@@H]3C[C@@H]4C(=O)N[C@@H](Cc5ccccc5)C(=O)N4[C@@H]3c3ccc(O)cc3)cc2)[C@]12C(=O)Nc1ccccc12

>  <measurementType>
z-score

>  <result>
2.33 (inactive)

$$$$
>  <smilesCode>
CN(C)CCCCNC(=O)[C@H]1C[C@H]2C(=O)N[C@@H](Cc3ccccc3)C(=O)N2[C@H]1c1cccc(OCCO)c1

>  <measurementType>
z-score

>  <result>
2.68 (inactive)

$$$$
>  <smilesCode>
COC(=O)[C@@]1(Cc2ccc(F)cc2)[C@H]2c3cc(C(=O)N(C)C)n(CCN4CCOCC4)c3C[C@H]2CN1C(=O)c1ccccc1

>  <measurementType>
z-score

>  <result>
-0.64 (inactive)

$$$$
>  <smilesCode>
CCCC[C@H]1OB(O)C[C@H]2C1=C(COC)C[C@H]1C(=O)C=CC(=O)[C@H]12

>  <measurementType>
z-score

>  <result>
1.09 (inactive)

$$$$
>  <smilesCode>
COc1ccc([Si](C)(C)[C@H]2[C@H](CCn3cc([C@H](O)c4ccccc4)nn3)O[C@@]3(C(=O)N(C)c4c(Br)cc(C)cc43)[C@@H]2C)cc1

>  <measurementType>
z-score

>  <result>
5.6 (inactive)

$$$$
>  <smilesCode>
COc1ccc([Si](C)(C)[C@H]2[C@H](CCn3cc([C@H](O)c4ccccc4)nn3)O[C@@]3(C(=O)N(c4ccccc4)c4ccccc43)[C@@H]2C)cc1

>  <measurementType>
z-score

>  <result>
6.6 (inactive)

$$$$

* * *

Quick list: z-score per entry.
- testName: PSAC antagonists in infected red cells, primary screen, cell-based, P. falciparum Indochina, OD700, 1 h (AID 1154)
- measurementParameters: P. falciparum Indochina infected RBC osmotic lysis, higher = more signal, called active from +8 up or from −8 down
Activity calls are given as the source filed them.

>  <molecule>
C=CCC(OC(C)=O)[C@@H]1[C@@H](N(Cc2cc3ccccc3o2)C(=O)Cc2ccc(OC)cc2)c2cc(OCCCO)ccc2N1C(=O)Cc1ccc2ccccc2c1 (stereo not given in full)

>  <z-score>
2.63 (inactive)

$$$$
>  <molecule>
C=CCOC(=O)[C@@H]1[C@H]2C(=O)O[C@H](c3ccccc3)[C@H](c3ccccc3)N2[C@H](c2ccc(OCCOC(=O)[C@H]3C[C@H]4C(=O)NCC(=O)N4[C@H]3c3ccc(O)cc3)cc2)[C@@]12C(=O)Nc1ccc(I)cc12

>  <z-score>
8.8 (active)

$$$$
>  <molecule>
C=CCC(OC(C)=O)[C@@H]1[C@@H](N(Cc2cccc3ccccc23)C(=O)c2ccc(-c3ccccc3)cc2)c2cc(OCCCO)ccc2N1C(=O)c1ccc2ccccc2n1 (stereo not given in full)

>  <z-score>
0.0025 (inactive)

$$$$
>  <molecule>
COCCOC(=O)N1C(=O)[C@@]2(c3cc(C#CCC(C(=O)OC)C(=O)OC)ccc31)[C@H](c1ccc(OCCO)cc1)N1[C@H](c3ccccc3)[C@H](c3ccccc3)OC(=O)[C@H]1[C@@H]2C(=O)N1CCCCCCC1

>  <z-score>
3.66 (inactive)

$$$$
>  <molecule>
COc1ccc(C(O)C2C=CC3C(=O)N(C)C(=O)C3N2Nc2ccc([N+](=O)[O-])cc2[N+](=O)[O-])cc1OCc1ccccc1 (stereo not given)

>  <z-score>
-0.686 (inactive)

$$$$

* * *

Items are presented alongside their recorded composite z-score.
- Test system: wheat germ agglutinin (Triticum aestivum), Alexa647-labelled
- testName: wheat germ agglutinin binders on compound microarrays, profiling panel, artefact control for SMM control-protein annotation, biochemical, small-molecule microarray, 635/667 nm fluorescence (AID 1140);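 note: score merges 667 nm feature emission with signal to noise over triplicate slides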
- measurementParameters: WGA-A647 binding, 635 nm fluorescence, higher = more signal

>  <smilesCode>
CCCC[C@@H]1C[C@H]1[C@@H](NC(=O)c1ccc(C(F)(F)F)cc1)c1ccc(C(=O)OC)cc1

>  <testedOn>
wheat germ agglutinin (Triticum aestivum), Alexa647-labelled

>  <composite z-score>
0.849

$$$$
>  <smilesCode>
C/C=C/CN(C(=O)C#Cc1ccccc1)[C@H](CO[Si](C)(C)C(C)(C)C)c1ccccc1

>  <testedOn>
wheat germ agglutinin (Triticum aestivum), Alexa647-labelled

>  <composite z-score>
-1.7

$$$$
>  <smilesCode>
COC(=O)Cn1c(C(=O)N(C)C)cc2c1C[C@H]1CN(C(=O)c3ccccc3)[C@@](Cc3ccc(OC)cc3)(C(=O)OC)[C@@H]21

>  <testedOn>
wheat germ agglutinin (Triticum aestivum), Alexa647-labelled

>  <composite z-score>
0.86

$$$$
>  <smilesCode>
Cc1ccc(S[C@]2(C(=O)NCCCN(C)C)CC(=O)N(Cc3ccccc3Cl)[C@@H]2c2ccc(CO)cc2I)cc1

>  <testedOn>
wheat germ agglutinin (Triticum aestivum), Alexa647-labelled

>  <composite z-score>
1.17

$$$$
>  <smilesCode>
CO[C@H]1O[C@H](CO)[C@@H](OC(=O)Nc2ccc3c(c2)OCO3)[C@@H]2OC(=O)[C@@H](Cc3ccccc3)C/C=C/C[C@H](Cc3ccccc3)C(=O)O[C@@H]12

>  <testedOn>
wheat germ agglutinin (Triticum aestivum), Alexa647-labelled

>  <composite z-score>
0.214

$$$$
>  <smilesCode>
COC(=O)[C@H](Cc1ccc(O)cc1)N1CC2=CCCC=C[C@@H]2[C@H]1[C@H](O)Cc1ccccc1

>  <testedOn>
wheat germ agglutinin (Triticum aestivum), Alexa647-labelled

>  <composite z-score>
0.216

$$$$
>  <smilesCode>
C=CC[C@@]1(C(=O)O)N=C(c2ccc(OCCCO)cc2)O[C@@H]1c1ccccc1CN=[N+]=[N-]

>  <testedOn>
wheat germ agglutinin (Triticum aestivum), Alexa647-labelled

>  <composite z-score>
1.24

$$$$

* * *

- testedOn: Carbonic anhydrase 2 (Homo sapiens)
- testName: CAII small-molecule binders, profiling panel, biochemical, small-molecule microarray, Alexa647-labelled CAII (AID 1122)
- measurementParameters: CAII-A647 binding fluorescence, higher = more signal
Each entry below carries its recorded composite z-score.

>  <compound>
CCCC=C(CCC)[C@@H](NC(=O)c1ccco1)c1ccc(C(=O)OC)cc1

>  <composite z-score>
0.669

$$$$
>  <compound>
COC(=O)[C@]1(CO)N=C(c2ccc(OCCCO)cc2)O[C@@H]1c1ccccc1CN=[N+]=[N-]

>  <composite z-score>
0.7

$$$$
>  <compound>
O=C1c2ccccc2[C@@]2(Cc3ccccc3N(Cc3ccccc3)C2=O)[C@H](c2ccc(CO)cc2)N1Cc1ccccc1

>  <composite z-score>
0.19

$$$$
>  <compound>
COc1ccc([Si](C)(C)[C@@H]2[C@@H](CC(=O)N(CCO)Cc3ccccc3)O[C@]3(C(=O)N(Cc4ccc(N5CCC5=O)cc4)c4ccccc43)[C@H]2C)cc1

>  <composite z-score>
-0.23

$$$$
>  <compound>
O=C1C2C=CC(C(O)c3ccc([N+](=O)[O-])cc3)N(Nc3ccccc3)C2C(=O)N1c1ccccc1 (stereo unspecified)

>  <composite z-score>
0.77

$$$$
>  <compound>
C[C@H]1C2[C@H](Cc3ccccc3)NC(=O)[C@]23C(=O)NCC(=O)N2CCC[C@H]2C(=O)NC/C=C\C/C=C/C3[C@@H]2O[C@]12C (stereo partly specified)

>  <composite z-score>
0.718

$$$$
>  <compound>
C#CCN([C@H](/C=C/C1CC1)[C@@H](O)Cc1ccccc1)[C@@H](Cc1ccccc1)C(=O)OC

>  <composite z-score>
-0.179

$$$$
>  <compound>
CCCC[C@@H](O)C1=C(COC)Cn2c(=O)n(-c3ccccc3)c(=O)n2[C@H]1CO

>  <composite z-score>
-0.469

$$$$
>  <compound>
CCOC(=O)C[C@H]1[C@H](OC(=O)Cc2ccc3c(c2)OCO3)[C@@H](NC(=O)c2ccccc2)c2cc(OCCCO)ccc2N1C(=O)Cc1ccc(OC)cc1

>  <composite z-score>
0.544

$$$$
>  <compound>
C=CC[C@@]1(C(=O)N(C)C)N=C(c2ccc(OCCCO)cc2)O[C@@H]1c1ccccc1

>  <composite z-score>
0.644

$$$$
>  <compound>
CCCCC(=C=CC[C@@H](O)c1cccc(OCCO)c1)C[C@@H](O)COCc1ccccc1

>  <composite z-score>
0.441

$$$$
>  <compound>
CC=CC(O)C1C=CC2C(=O)N(C)C(=O)C2N1NC(=O)OC(C)(C)C (stereo unspecified)

>  <composite z-score>
0.774

$$$$
>  <compound>
CCCC[C@H]1OB(O)C[C@H]2C1=C(COC)C[C@H]1C(=O)C=CC(=O)[C@H]12

>  <composite z-score>
-0.104

$$$$
>  <compound>
O=C1C2C=CC(C(O)c3cccs3)N(Nc3ccccc3)C2C(=O)N1c1ccccc1 (stereo unspecified)

>  <composite z-score>
0.787

$$$$
>  <compound>
CCc1cccc(NC(=O)O[C@H]2[C@H](OC(=O)Nc3ccc4c(c3)OCO4)[C@H](OC(=O)Nc3ccc4c(c3)OCO4)[C@@H](OC)O[C@@H]2CO)c1

>  <composite z-score>
0.486

$$$$
>  <compound>
CCCC[C@H]1OB(O)C[C@H]2C1=C(C)C[C@H]1C(=O)C=CC(=O)[C@H]12

>  <composite z-score>
0.011

$$$$
